Recorded half-life by entry
# ASSAY INFO: Stability in simulated gastric fluid
# Format: in vitro ADME
# STUDY CONDITIONS: simulated gi fluid; 2 μM, 37° C., pH 1.5; read-out: half-life (t1/2) in simulated gastric fluid
Where a SMILES comes first, the peptide text is derived from it. [ ]: non-standard residue; d: D form. ξ: configuration not given here. ξαMeBip(2'-Et,4'-OMe) = CCc1cc(OC)ccc1-c1ccc(CC(C)(N)C(=O)O)cc1; ξαMe(hhPhe) = CC(N)(CCCc1ccccc1)C(=O)O; ξαMePhe(2-F) = CC(N)(Cc1ccccc1F)C(=O)O; ξhhPhe = NC(CCCc1ccccc1)C(=O)O; ξαMeD = CC(N)(CC(=O)O)C(=O)O; ξαMeP = CC1(C(=O)O)CCCN1; ξαMeS = CC(N)(CO)C(=O)O
Use h as the unit, but write only the number.

Solved entries:
>>> measured_number("CCc1cc(OC)ccc1-c1ccc(CC(C)(NC(=O)[C@H](CC(=O)O)NC(=O)[C@H](CO)NC(=O)[C@@H](NC(=O)[C@H](Cc2ccccc2)NC(=O)[C@@H](NC(=O)CNC(=O)[C@H](CCC(=O)O)NC(=O)C2(C)CCCN2C(=O)[C@H](Cc2c[nH]cn2)NC(=O)[C@@H](N)C(C)C)[C@@H](C)O)[C@@H](C)O)C(=O)NC(C)(CCCc2ccccc2)C(N)=O)cc1 (some centres unmarked) [compound 140] (H-VH[ξαMeP]EGTFTSD[ξαMeBip(2'-Et,4'-OMe)][ξαMe(hhPhe)]-NH2)")
0.5
>>> measured_number("CCc1cc(OC)ccc1-c1ccc(CC(C)(NC(=O)[C@H](CC(=O)O)NC(=O)C(C)(CO)NC(=O)[C@@H](NC(=O)C(C)(Cc2ccccc2F)NC(=O)[C@@H](NC(=O)CNC(=O)[C@H](CCC(N)=O)NC(=O)[C@H](CO)NC(=O)[C@H](Cc2c[nH]cn2)NC(=O)[C@@H](N)C(C)C)[C@@H](C)O)[C@@H](C)O)C(=O)NC(C)(CCCc2ccccc2)C(N)=O)cc1 (some centres unmarked) [compound 165] (H-VHSQGT[ξαMePhe(2-F)]T[ξαMeS]D[ξαMeBip(2'-Et,4'-OMe)][ξαMe(hhPhe)]-NH2)")
0.5
>>> measured_number("CCc1cc(OC)ccc1-c1ccc(CC(C)(NC(=O)[C@H](CC(=O)O)NC(=O)[C@H](CO)NC(=O)[C@@H](NC(=O)[C@H](Cc2ccccc2)NC(=O)[C@@H](NC(=O)CNC(=O)[C@H](CCC(N)=O)NC(=O)[C@H](CO)NC(=O)[C@H](Cc2c[nH]cn2)NC(=O)[C@@H](NC(=O)[C@@H](N)C(C)C)C(C)C)[C@@H](C)O)[C@@H](C)O)C(=O)NC(CCCc2ccccc2)C(N)=O)cc1 (some centres unmarked) [compound 205] (H-VVHSQGTFTSD[ξαMeBip(2'-Et,4'-OMe)][ξhhPhe]-NH2)")
4

Give the measured half-life of CCc1cc(OC)ccc1-c1ccc(CC(C)(NC(=O)C(C)(CC(=O)O)NC(=O)[C@H](CO)NC(=O)[C@@H](NC(=O)[C@H](Cc2ccccc2)NC(=O)[C@@H](NC(=O)CNC(=O)[C@H](CCC(=O)O)NC(=O)C2(C)CCCN2C(=O)[C@H](Cc2c[nH]cn2)NC(=O)[C@@H](N)C(C)C)[C@@H](C)O)[C@@H](C)O)C(=O)NC(C)(CCCc2ccccc2)C(N)=O)cc1 (some centres unmarked) [compound 188] (H-VH[ξαMeP]EGTFTS[ξαMeD][ξαMeBip(2'-Et,4'-OMe)][ξαMe(hhPhe)]-NH2) .
4

Values from patent US20120264685A1
